For each entry below, report its Ex/Em1, excitation value.
- method-summary: Steady state fluorescence spectra and quantum yield
- Assay type: physicochemical
- test-settings: in complex with biliverdin, UV/blue excitation

[Q] Query (molecule): SFP-FH88insGG: L135E monoSFP extended with glycine residues at position 88, SEQ ID NO:5 (protein) MFIKPGRCPKPAVQEDFDAARYLGVWYDIQRLPNKFQKGECATATYSLSPGVGFSVFNRERLANGTIKSVIGSAIAEDPCEPAKLQFGGFHENAAPVPYWVLSTDYDNYALVYSCINEGASHAAYASIVSRQPTLPEETIKKLQGTMSSFGVGVDTLLTTNQDAAYCSAMNQ ; field requested: Ex/Em1, excitation
[A] 380 nm

[Q] Try this molecule too: SFP-VP95insGG: L135E monoSFP extended with glycine residues at position 95, SEQ ID NO:6 (protein) MFIKPGRCPKPAVQEDFDAARYLGVWYDIQRLPNKFQKGECATATYSLSPGVGFSVFNRERLANGTIKSVIGSAIAEDPCEPAKLQFFHENAAPGGVPYWVLSTDYDNYALVYSCINSFEGASHAAYASIVSRQPTLPEETIKKLQGTMSSFGVGVDTLLTTNQDAAYCSAMNQ
[A] 380 nm
